- Test system: TTR
- testName: TTR editing in primary human hepatocytes treated with LNP formulated Spy Cas9 mRNA (SEQ ID NO: 2) and sgRNAs (Table 16)
- Assay type: cell-based
- settings: LNP formulated Spy Cas9 mRNA (SEQ ID NO: 2) and sgRNA, 72 hours
Strand notation (5' to 3'): a small letter for the sugar, then the base; units joined by * are phosphorothioate-linked, units joined directly phosphodiester-linked; [ ] holds rarer units or linkages, { } end groups; capitals alone tell only the bases. m = 2'-O-methyl; r = 2'-OH (RNA)
Listing: 12.5 ng mRNA, 3.9 nM sgRNA Avg % Edit of selected molecules
Use % as the unit, but write only the number.

Consider the reported 12.5 ng mRNA, 3.9 nM sgRNA Avg % Edit for these molecules:
molecule	12.5 ng mRNA, 3.9 nM sgRNA Avg % Edit (%)
G000567: TTR sgRNA modified sequence, Human, SEQ ID No. 109; guide sequence of CR003352 (nucleic acid) guide: mG*mA*mA*rArGrGrCrUrGrCrUrGrArUrGrArCrArCrCrGrUrUrUrUrArGrAmGmCmUmAmGmAmAmAmUmAmGmCrArArGrUrUrArArArArUrArArGrGrCrUrArGrUrCrCrGrUrUrArUrCrAmAmCmUmUmGmAmAmAmAmAmGmUmGmGmCmAmCmCmGmAmGmUmCmGmGmUmGmCmU*mU*mU*mU	48.95
G000496: TTR sgRNA modified sequence, Human, SEQ ID No. 103; guide sequence of CR005304 (nucleic acid) guide: mG*mG*mC*rCrGrUrGrCrArUrGrUrGrUrUrCrArGrArArGrUrUrUrUrArGrAmGmCmUmAmGmAmAmAmUmAmGmCrArArGrUrUrArArArArUrArArGrGrCrUrArGrUrCrCrGrUrUrArUrCrAmAmCmUmUmGmAmAmAmAmAmGmUmGmGmCmAmCmCmGmAmGmUmCmGmGmUmGmCmU*mU*mU*mU	30.73
G000488: TTR sgRNA modified sequence, Human, SEQ ID No. 95; guide sequence of CR003346 (nucleic acid) guide: mA*mA*mA*rGrUrUrCrUrArGrArUrGrCrUrGrUrCrCrGrGrUrUrUrUrArGrAmGmCmUmAmGmAmAmAmUmAmGmCrArArGrUrUrArArArArUrArArGrGrCrUrArGrUrCrCrGrUrUrArUrCrAmAmCmUmUmGmAmAmAmAmAmGmUmGmGmCmAmCmCmGmAmGmUmCmGmGmUmGmCmU*mU*mU*mU	44.80
G000480: TTR sgRNA modified sequence, Human, SEQ ID No. 87; guide sequence of CR003353 (nucleic acid) guide: mA*mA*mA*rGrGrCrUrGrCrUrGrArUrGrArCrArCrCrUrGrUrUrUrUrArGrAmGmCmUmAmGmAmAmAmUmAmGmCrArArGrUrUrArArArArUrArArGrGrCrUrArGrUrCrCrGrUrUrArUrCrAmAmCmUmUmGmAmAmAmAmAmGmUmGmGmCmAmCmCmGmAmGmUmCmGmGmUmGmCmU*mU*mU*mU	59.33
G000483: TTR sgRNA modified sequence, Human, SEQ ID No. 90; guide sequence of CR005298 (nucleic acid) guide: mU*mC*mC*rArCrUrCrArUrUrCrUrUrGrGrCrArGrGrArGrUrUrUrUrArGrAmGmCmUmAmGmAmAmAmUmAmGmCrArArGrUrUrArArArArUrArArGrGrCrUrArGrUrCrCrGrUrUrArUrCrAmAmCmUmUmGmAmAmAmAmAmGmUmGmGmCmAmCmCmGmAmGmUmCmGmGmUmGmCmU*mU*mU*mU	7.37
G000482: TTR sgRNA modified sequence, Human, SEQ ID No. 89; guide sequence of CR003365 (nucleic acid) guide: mU*mG*mU*rArGrArArGrGrGrArUrArUrArCrArArArGrGrUrUrUrUrArGrAmGmCmUmAmGmAmAmAmUmAmGmCrArArGrUrUrArArArArUrArArGrGrCrUrArGrUrCrCrGrUrUrArUrCrAmAmCmUmUmGmAmAmAmAmAmGmUmGmGmCmAmCmCmGmAmGmUmCmGmGmUmGmCmU*mU*mU*mU	19.10
G000487: TTR sgRNA modified sequence, Human, SEQ ID No. 94; guide sequence of CR003357 (nucleic acid) guide: mU*mU*mC*rUrUrUrGrGrCrArArCrUrUrArCrCrCrArGrGrUrUrUrUrArGrAmGmCmUmAmGmAmAmAmUmAmGmCrArArGrUrUrArArArArUrArArGrGrCrUrArGrUrCrCrGrUrUrArUrCrAmAmCmUmUmGmAmAmAmAmAmGmUmGmGmCmAmCmCmGmAmGmUmCmGmGmUmGmCmU*mU*mU*mU	17.37
G000492: TTR sgRNA modified sequence, Human, SEQ ID No. 99; guide sequence of CR003342 (nucleic acid) guide: mC*mU*mU*rCrUrCrUrArCrArCrCrCrArGrGrGrCrArCrGrUrUrUrUrArGrAmGmCmUmAmGmAmAmAmUmAmGmCrArArGrUrUrArArArArUrArArGrGrCrUrArGrUrCrCrGrUrUrArUrCrAmAmCmUmUmGmAmAmAmAmAmGmUmGmGmCmAmCmCmGmAmGmUmCmGmGmUmGmCmU*mU*mU*mU	15.87

If you can, please state the reported 12.5 ng mRNA, 3.9 nM sgRNA Avg % Edit value of G000501: TTR sgRNA modified sequence, Human, SEQ ID No. 108; guide sequence of CR005300 (nucleic acid) guide: mU*mC*mA*rCrArGrArArArCrArCrUrCrArCrCrGrUrArGrUrUrUrUrArGrAmGmCmUmAmGmAmAmAmUmAmGmCrArArGrUrUrArArArArUrArArGrGrCrUrArGrUrCrCrGrUrUrArUrCrAmAmCmUmUmGmAmAmAmAmAmGmUmGmGmCmAmCmCmGmAmGmUmCmGmGmUmGmCmU*mU*mU*mU .
32.30

If you can, please state the reported 12.5 ng mRNA, 3.9 nM sgRNA Avg % Edit value of G000499: TTR sgRNA modified sequence, Human, SEQ ID No. 106; guide sequence of CR005303 (nucleic acid) guide: mU*mG*mA*rArUrCrCrArArGrUrGrUrCrCrUrCrUrGrArGrUrUrUrUrArGrAmGmCmUmAmGmAmAmAmUmAmGmCrArArGrUrUrArArArArUrArArGrGrCrUrArGrUrCrCrGrUrUrArUrCrAmAmCmUmUmGmAmAmAmAmAmGmUmGmGmCmAmCmCmGmAmGmUmCmGmGmUmGmCmU*mU*mU*mU .
16.07

If you can, please state the reported 12.5 ng mRNA, 3.9 nM sgRNA Avg % Edit value of G000493: TTR sgRNA modified sequence, Human, SEQ ID No. 100; guide sequence of CR003368 (nucleic acid) guide: mA*mA*mG*rUrGrCrCrUrUrCrCrArGrUrArArGrArUrUrGrUrUrUrUrArGrAmGmCmUmAmGmAmAmAmUmAmGmCrArArGrUrUrArArArArUrArArGrGrCrUrArGrUrCrCrGrUrUrArUrCrAmAmCmUmUmGmAmAmAmAmAmGmUmGmGmCmAmCmCmGmAmGmUmCmGmGmUmGmCmU*mU*mU*mU .
7.33
